Cited source for all entries: patent US20260034230A1

Target: T1, REGN2431 (hmm.hTfRC): monomeric human Tfrc ectodomain (C89-F760) with N-terminal hexahistidine-myc-myc tag (human, UniProt P02786 89-760)
T1 construct: also called hmm.hTfR(C89-F763); hTFR-mmh
T1 sequence (P02786 other isoform, or with tags, fused parts or gaps): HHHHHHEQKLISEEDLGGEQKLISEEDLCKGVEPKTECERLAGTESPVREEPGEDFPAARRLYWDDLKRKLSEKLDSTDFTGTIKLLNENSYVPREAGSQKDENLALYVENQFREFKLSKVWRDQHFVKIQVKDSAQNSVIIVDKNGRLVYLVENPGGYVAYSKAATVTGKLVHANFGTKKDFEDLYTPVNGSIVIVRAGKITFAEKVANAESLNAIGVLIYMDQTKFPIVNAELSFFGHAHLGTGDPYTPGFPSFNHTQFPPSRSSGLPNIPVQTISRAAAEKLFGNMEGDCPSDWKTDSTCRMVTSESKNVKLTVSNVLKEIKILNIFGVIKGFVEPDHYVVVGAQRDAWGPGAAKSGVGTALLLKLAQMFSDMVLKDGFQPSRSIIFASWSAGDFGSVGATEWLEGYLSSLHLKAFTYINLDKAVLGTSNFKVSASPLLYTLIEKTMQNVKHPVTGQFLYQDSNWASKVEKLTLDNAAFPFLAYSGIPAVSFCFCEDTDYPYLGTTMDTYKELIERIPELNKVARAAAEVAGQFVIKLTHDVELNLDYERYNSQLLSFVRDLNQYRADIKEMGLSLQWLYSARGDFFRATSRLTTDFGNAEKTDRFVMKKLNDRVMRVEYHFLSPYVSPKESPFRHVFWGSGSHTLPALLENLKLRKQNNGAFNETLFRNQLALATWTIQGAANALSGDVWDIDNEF
Experiment: SPR Biacore, IgG captured by anti-hFc, 25 C
experimental_endpoint: t1/2 (h)
Answer with a number only, understood to be in h.

Exam item: State, in one line, measured t1/2 of 69307 anti-hTfR monoclonal antibody (bivalent IgG1) (antibody, V domains shown, hIgG1/kappa) VH: EVQLVESGGGLVQPGGSLRLSCTASGFTFSNYWMTWVRQAPGKGLEWVANIKEDGSEKEYVDSVKGRFTISRDNAKNSLYLQMNSLRGEDTAVYYCARDGEQLVDYYYYYVMDVWGQGTTVTVSS VL: DIQMTQSPSSVSASVGDRVTITCRASQGISSWLAWYQQKPGKAPKLLIYAASSLQSGVPSRFSGSGSGTDFTLTISSLQPEDFATYYCQKADSLPYAFGQGTKLEIKR
Marked response: 4.52

Exam item: Identify the reported t1/2 for the following entry. 69348 anti-hTfR monoclonal antibody (bivalent IgG1) (antibody, V domains shown, hIgG1/kappa) VH: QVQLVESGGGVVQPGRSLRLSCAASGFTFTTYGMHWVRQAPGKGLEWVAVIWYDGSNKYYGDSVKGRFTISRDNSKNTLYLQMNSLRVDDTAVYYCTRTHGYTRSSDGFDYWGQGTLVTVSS VL: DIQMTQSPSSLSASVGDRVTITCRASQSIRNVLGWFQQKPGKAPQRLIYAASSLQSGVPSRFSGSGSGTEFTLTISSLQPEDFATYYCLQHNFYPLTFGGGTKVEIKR
Marked response: 1.12

Exam item: Identify the reported t1/2 for the following entry. 12799B anti-hTfR monoclonal antibody (bivalent IgG1) (antibody, V domains shown, hIgG1/kappa; also called H1H12799B; REGN17508) VH: QITLKESGPTLVKPTQTLTLTCTFSGFSLSTSGVGVVWIRQPPGKALEWLALIYWNDHKRYSPSLGSRLTITKDTSKNQVVLTMTNMDPVDTATYYCAHYSGSYSYYYYGLDVWGQGTTVTVSS VL: DIQMTQSPSSVSASVGDRVTITCRASQGIASWLAWYQQKPGKAPELLIYAASSLQGGVPSRFSGSGSGTDFTLTISSLQPEDFAIYYCQQANYFPWTFGQGTKVEIKR
Marked response: 2.91
